target: T1, recombinant human CD8 (rhCD8) (human, UniProt P01732 22-182); test: SPR (BIAcore), minibody captured via anti-human IgG Fc, hCD8 analyte at 50 nM
T1 construct: Soluble purified recombinant protein; also called purified recombinant human CD8 protein; soluble CD8
T1 sequence (P01732 22-182 limits assumed): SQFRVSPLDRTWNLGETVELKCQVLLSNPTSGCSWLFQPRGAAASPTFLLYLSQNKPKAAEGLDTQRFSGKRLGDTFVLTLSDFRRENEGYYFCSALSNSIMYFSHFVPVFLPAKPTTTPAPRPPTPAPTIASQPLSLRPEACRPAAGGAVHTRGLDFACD
READOUT TYPE: koff (s⁻¹)
Give a bare numeral; the unit s⁻¹ is implied.

Memo: IAb_Mb1a_CD8 (other, also called variant 1a) DVQITQSPSSLSASVGDRVTITCRTSRSISQYLAWYQQKPGKVPKLLIYSGSTLQSGVPSRFSGSGSGTDFTLTISSLQPEDVATYYCQQHNENPLTFGGGTKVEIKGSTSGGGSGGGSGGGGSSEVQLVESGGGLVQPGGSLRLSCAASGFNIKDTYIHFVRQAPGKGLEWIGRIDPANDNTLYASKFQGKATISADTSKNTAYLQMNSLRAGDTAVYYCGRGYGYYVFDHWGQGTLVTVSSEPKSCDKTHTCPPCGGGSSGGGSGGQPREPQVYTLPPSRDELTKNQVSLTCLVKGFYPSDIAVEWESNGQPENNYKTTPPVLDSDGSFFLYSKLTVDKSRWQQGNVFSCSVMHEALHNHYTQKSLSLSPGK , reported koff: 0.0012
